test system: HepaRG; assay: LDH release cytotoxicity, % of total lysis control; higher = more cytotoxic; conditions: 31.6228 µM; 48 h
Recorded LDH release cytotoxicity for the following compounds
Answer in %, number only, no unit symbol.

Previously resolved entries follow.
Field LDH release cytotoxicity (HepaRG), entry O=c1[nH]cnc2c1ncn2C1CCC(CO)O1 (centres undefined) : -1.11

Field LDH release cytotoxicity (HepaRG), entry CC(C)CCCCCCOC(=O)c1ccc(C(=O)OCCCCCCC(C)C)c(C(=O)OCCCCCCC(C)C)c1 [Triisononyl trimellitate] : -0.993

New cases:
Field LDH release cytotoxicity (HepaRG), entry Nc1cccc(N)c1 : -1.17

Field LDH release cytotoxicity (HepaRG), entry Cc1ncc(CO)c(CO)c1O : -2.46

Field LDH release cytotoxicity (HepaRG), entry CCOP(=S)(OCC)Oc1ccc2c(C)c(Cl)c(=O)oc2c1 : -2.86

Field LDH release cytotoxicity (HepaRG), entry Nc1ccc(Nc2ccccc2)cc1 : 1.04

Field LDH release cytotoxicity (HepaRG), entry CCOC(=O)c1ccc(O)cc1 : -0.271

Field LDH release cytotoxicity (HepaRG), entry CCCCC(O)(Cn1cncn1)c1ccc(Cl)cc1Cl (centres undefined) : -0.401

* * *

Recorded LDH release cytotoxicity for the following molecules
system: HepaRG; experiment: LDH release cytotoxicity, % of total lysis control; higher = more cytotoxic; details: 1 µM; 48 h
Where a name gives a salt, the structure may show the parent alone.
Answer in %, number only, no unit symbol.

Previously resolved entries follow.
Kindly note the recorded LDH release cytotoxicity for O=C(O)COc1ccc(Cl)cc1Cl , which is -3.21

Kindly note the recorded LDH release cytotoxicity for CN(C)CCCN(C)CCCN(C)C , which is -1.73

Kindly note the recorded LDH release cytotoxicity for CN(C)CCOC(c1ccccc1)c1ccccc1 [Diphenhydramine hydrochloride] , which is -1.8

Now consider the entry below.
Kindly note the recorded LDH release cytotoxicity for CCC(CC)Nc1c([N+](=O)[O-])cc(C)c(C)c1[N+](=O)[O-] , which is 0.269

* * *

tested on: HepaRG; assay: LDH release cytotoxicity, % of total lysis control; higher = more cytotoxic; details: 31.6228 µM; 48 h
Recorded LDH release cytotoxicity for the following compounds

Kindly note the recorded LDH release cytotoxicity for CCN(CC)CCNc1ccc(CNC=O)c2sc3ccc(OC)cc3c(=O)c12 , which is 5.14%

Kindly note the recorded LDH release cytotoxicity for NS(=O)(=O)C(F)(F)C(F)(F)C(F)(F)C(F)(F)C(F)(F)C(F)(F)C(F)(F)C(F)(F)F [Perfluorooctanesulfonamide] , which is 41.1%

Kindly note the recorded LDH release cytotoxicity for CC(C=CC1=C(C)CCCC1(C)C)=CC=CC(C)=CC(=O)O [all-trans-Retinoic acid] , which is -1.86%

Kindly note the recorded LDH release cytotoxicity for CC(C)C1(C)N=C(c2nc3ccccc3cc2C(=O)O)NC1=O (centres undefined) , which is -0.68%

Kindly note the recorded LDH release cytotoxicity for COc1cc2c(c(OC)c1OC)-c1ccc(OC)c(=O)cc1C(NC(C)=O)CC2 (centres undefined) , which is 7.72%

Now consider the entry below.
Kindly note the recorded LDH release cytotoxicity for Nc1nc(N)nc(NC2CC2)n1 , which is -1.52%

* * *

test system: HepaRG; assay: LDH release cytotoxicity, % of total lysis control; higher = more cytotoxic; conditions: 0.3162278 µM; 48 h
Recorded LDH release cytotoxicity for the following compounds
Answer in %, number only, no unit symbol.

Previously resolved entries follow.
Kindly note the recorded LDH release cytotoxicity for N#CC(CCc1ccc(Cl)cc1)(Cn1cncn1)c1ccccc1 (stereo not given) , which is -0.539

Kindly note the recorded LDH release cytotoxicity for [N-]=[N+]=[N-] [Sodium azide] , which is -1.17

Kindly note the recorded LDH release cytotoxicity for CC(=O)SC(C(=O)NC1Cc2ccccc2C2CCCC(C(=O)O)N2C1=O)C(C)C (stereo not given) , which is -2.73

Kindly note the recorded LDH release cytotoxicity for OC(CCl)CCl , which is -1.03

Kindly note the recorded LDH release cytotoxicity for CCOC(=O)c1ccc(O)cc1 , which is -1.05

Kindly note the recorded LDH release cytotoxicity for CNC(=O)N(C)c1nnc(C(C)(C)C)s1 , which is -1.87

Now consider the entry below.
Kindly note the recorded LDH release cytotoxicity for CCCCC(CC)C(=O)OCCOCCOCCOC(=O)C(CC)CCCC (stereo not given) [Triethylene glycol bis(2-ethylhexanoate)] , which is -3.45
